method_summary: chemical genetic growth profiling, strain panel (AID 1159580);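 also: tested at 20 µM; growth read once vehicle control cultures reached saturation at 30 °C; 1 = growth at the plate median or of vehicle wells; lower values mean less growth of the strain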
condition_label: S. cerevisiae deletion strains, growth OD, locus YNL153C, strain GIM3
Out of some 5,500 compounds screened, about 2,000 (36%) were called active. Another 18% or so got no clear call; they are omitted. Rule as the data show it: active = normalized growth mostly below about 0.91 (no sharp cut-off); inconclusive = no clear call, values can overlap the other calls; inactive = mostly above about 0.92. The list shows a part of the results.
Outcomes: yes for active, no for inactive

compound="CC(C)COCC(CN(Cc1ccccc1)c1ccccc1)N1CCCC1 (stereo not given)" category_label=yes
compound=COc1c2ccoc2c(OC)c2oc(=O)ccc12 category_label=no
compound=CC(=O)N[C@@H](CS)C(=O)O category_label=no
compound=CCC(C)(C)C(=O)O[C@H]1C[C@@H](C)C=C2C=C[C@H](C)[C@H](CC[C@@H]3C[C@@H](O)CC(=O)O3)[C@H]21 category_label=no
compound="COc1cc2c(cc1OC)C1Cc3ccc(OC)c(OC)c3CN1CC2 (stereo not given)" category_label=no
compound=O=c1[nH]oc2c1CCNC2 category_label=no
compound="CC(C)(Oc1ccc(C2CC2(Cl)Cl)cc1)C(=O)O (stereo not given)" category_label=no
compound="O=C1[C@H](CCC(O)c2ccc(F)cc2)[C@@H](c2ccc(O)cc2)N1c1ccc(F)cc1 (stereo not given in full)" category_label=no
compound="CC(C)C(C)/C=C/C(C)C1CCC2C3=CC=C4CC(O)CCC4(C)C3CCC21C (stereo not given)" category_label=no
compound=CC[C@H](C)C(=O)O[C@H]1C[C@@H](C)C=C2C=C[C@H](C)[C@H](CC[C@@H]3C[C@@H](O)CC(=O)O3)[C@H]21 category_label=no

----------
method_summary: chemical genetic growth profiling, strain panel (AID 1159580);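 also: tested at 20 µM; growth read once vehicle control cultures reached saturation at 30 °C; 1 = growth at the plate median or of vehicle wells; lower values mean less growth of the strain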
condition_label: S. cerevisiae deletion strains, growth OD, locus YLR268W, strain sec22, active compounds read low
Out of some 5,500 compounds screened, about 2,000 (36%) were called active. Not shown: some 18% with an inconclusive outcome. The list shows a part of the results.
endpoint: normalized growth

compound=CCCCCCOc1ccccc1C(N)=O endpoint="normalized growth" observed_measurement=0.308
compound=O=C(O)c1cc2cc(Cc3cccnc3)ccc2o1 endpoint="normalized growth" observed_measurement=0.986
compound=CCN(CC)CCOC(=O)c1ccc(N)cc1 endpoint="normalized growth" observed_measurement=0.959
compound=CCCCOC(=O)c1ccccc1C(=O)OCc1ccccc1 endpoint="normalized growth" observed_measurement=0.968
compound=CCCCNc1ccc(C(=O)OCCN(C)C)cc1 endpoint="normalized growth" observed_measurement=1.04
compound=O=C(Cn1ccnc1[N+](=O)[O-])NCCO endpoint="normalized growth" observed_measurement=0.981
compound=Cc1cc(-c2ccccc2)nnc1NCCN1CCOCC1 endpoint="normalized growth" observed_measurement=0.946
compound=CCCCOC(=O)c1ccc(N)cc1 endpoint="normalized growth" observed_measurement=0.86
compound=OC(Cn1cncn1)(Cn1cncn1)c1ccc(F)cc1F endpoint="normalized growth" observed_measurement=0.969
compound=CC1(C)O[C@H]2[C@H](O)C[C@](O)(C(N)=O)C[C@H]2O1 endpoint="normalized growth" observed_measurement=1.05
compound=CC[C@H](C)C(=O)O[C@H]1C[C@@H](C)C=C2C=C[C@H](C)[C@H](CC[C@@H]3C[C@@H](O)CC(=O)O3)[C@H]21 endpoint="normalized growth" observed_measurement=1.06
compound="CC[C@H](C)C(=O)O[C@H]1CCC=C2C=C[C@H](C)C(CCC3C[C@@H](O)CC(=O)O3)[C@H]21 (some centres not stated)" endpoint="normalized growth" observed_measurement=0.954
